// provenance: the supplement of paper PMC6555819

This listing pairs sequences with measured PBM binding z-score.
- Test system: PPARg:RXRa 270nM:90nM, anti-RXR (NR concentration 270 nM, RXRa partner concentration 90 nM)
- Experiment notes: PBM binding z-score (relative to random genomic background probes); higher = stronger binding; sequences stand for … in GC…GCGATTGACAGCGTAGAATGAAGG
Lab note: write the figure by itself, no unit.

| Primary sequence | Endpoint value |
| --- | --- |
| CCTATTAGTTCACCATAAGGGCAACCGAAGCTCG | 0.652 |
| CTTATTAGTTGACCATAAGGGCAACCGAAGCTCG | 0.266 |
| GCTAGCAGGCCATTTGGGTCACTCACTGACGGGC | 0.596 |
| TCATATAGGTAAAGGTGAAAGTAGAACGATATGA | 4.54 |
| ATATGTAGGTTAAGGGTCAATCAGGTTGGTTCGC | 9.7 |

Continue with the next sequence.
Q: Please look at this sequence and report its PBM binding z-score: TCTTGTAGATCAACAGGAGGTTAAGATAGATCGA
Result: 1.07

###

- Test system: PXR homodimer (NR concentration 270 nM)
- Experiment notes: PBM binding z-score (relative to random genomic background probes); higher = stronger binding; sequences stand for … in GC…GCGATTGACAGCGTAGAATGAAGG
// label = true (1) if PBM binding z-score is not less than 0.2, otherwise false (0)

| Primary sequence | Qualitative label |
| --- | --- |
| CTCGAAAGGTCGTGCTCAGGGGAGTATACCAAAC | true (1) |

Q: Assess whether reported PBM binding z-score for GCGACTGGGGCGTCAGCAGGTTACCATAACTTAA sits at 0.2 or higher.
Result: false (0)

Q: Decide: PBM binding z-score of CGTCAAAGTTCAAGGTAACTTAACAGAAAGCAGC >= 0.2?
Result: true (1)

Q: Does the sequence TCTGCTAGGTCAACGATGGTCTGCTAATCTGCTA have recorded PBM binding z-score that is 0.2 or more?
Result: false (0)

Q: hey, is PBM binding z-score for this one >= 0.2? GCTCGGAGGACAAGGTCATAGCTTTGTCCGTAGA
Result: true (1)

Q: Has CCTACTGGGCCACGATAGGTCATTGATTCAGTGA a recorded PBM binding z-score greater than or equal to 0.2?
Result: false (0)

Q: Identify whether the reported PBM binding z-score of the following sequence is 0.2 or greater: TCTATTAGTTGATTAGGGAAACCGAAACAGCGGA
Result: true (1)

Q: Kindly determine if PBM binding z-score recorded for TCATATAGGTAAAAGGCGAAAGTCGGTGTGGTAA is above or exactly 0.2.
Result: false (0)

Q: Confirm if PBM binding z-score reported for the sequence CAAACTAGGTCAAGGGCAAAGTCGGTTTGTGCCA is 0.2 or above.
Result: true (1)

###

- Test system: PXR:RXRa (NR concentration 270 nM, RXRa partner concentration 90 nM)
- Experiment notes: PBM binding z-score (relative to random genomic background probes); higher = stronger binding; sequences stand for … in GC…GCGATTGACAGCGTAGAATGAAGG
// map PBM binding z-score onto a label; ranges low bracket: < 0.9; middle bracket: ≥ 0.9 and < 2; high bracket: ≥ 2

| Primary sequence | Test system | Qualitative label |
| --- | --- | --- |
| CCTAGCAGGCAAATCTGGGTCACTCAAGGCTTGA | PXR:RXRa (NR concentration 270 nM, RXRa partner concentration 90 nM) | low bracket |

Q: Which category does the recorded PBM binding z-score put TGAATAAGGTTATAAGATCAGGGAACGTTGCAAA in?
Result: low bracket

Q: # classify by PBM binding z-score band: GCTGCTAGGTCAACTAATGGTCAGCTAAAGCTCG
Result: middle bracket

###

- Tested on: LXRb:RXRa (NR concentration 270 nM, RXRa partner concentration 90 nM)
- Experiment notes: PBM binding z-score (relative to random genomic background probes); higher = stronger binding; sequences stand for … in GC…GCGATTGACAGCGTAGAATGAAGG
Measured quantity: PBM binding z-score
Please state the value as a number alone, without comment.

Take a look at these entries with their results.
| Primary sequence | PBM binding z-score |
| --- | --- |
| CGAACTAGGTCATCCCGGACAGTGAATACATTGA | 2.09 |
| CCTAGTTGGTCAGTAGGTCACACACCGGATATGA | 1.64 |
| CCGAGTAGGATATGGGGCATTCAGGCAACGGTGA | -0.307 |
| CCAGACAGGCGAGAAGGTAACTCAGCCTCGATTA | -0.97 |
| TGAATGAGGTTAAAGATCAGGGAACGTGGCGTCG | 1.71 |

Q: Specify the recorded PBM binding z-score for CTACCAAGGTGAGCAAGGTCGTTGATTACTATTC , system: LXRb:RXRa (NR concentration 270 nM, RXRa partner concentration 90 nM).
Result: 0.949

Q: # lookup: LXRb:RXRa (NR concentration 270 nM, RXRa partner concentration 90 nM) PBM binding z-score, key = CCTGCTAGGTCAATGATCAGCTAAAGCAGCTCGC
Result: 1.3

Q: Print LXRb:RXRa (NR concentration 270 nM, RXRa partner concentration 90 nM) PBM binding z-score for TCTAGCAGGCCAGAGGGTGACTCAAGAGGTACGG .
Result: -0.373

Q: State, for LXRb:RXRa (NR concentration 270 nM, RXRa partner concentration 90 nM), measured PBM binding z-score of the sequence listed here: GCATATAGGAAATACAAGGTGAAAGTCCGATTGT
Result: 0.0762

Q: State PBM binding z-score on LXRb:RXRa (NR concentration 270 nM, RXRa partner concentration 90 nM). Entry: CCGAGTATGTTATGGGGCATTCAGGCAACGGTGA
Result: 0.322

Q: State, for LXRb:RXRa (NR concentration 270 nM, RXRa partner concentration 90 nM), measured PBM binding z-score of the sequence listed here: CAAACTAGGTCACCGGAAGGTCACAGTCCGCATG
Result: 4.77

Q: Look up and report measured PBM binding z-score (LXRb:RXRa (NR concentration 270 nM, RXRa partner concentration 90 nM)) for the following sequence: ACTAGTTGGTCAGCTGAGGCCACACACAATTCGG
Result: -0.129

Q: Report PBM binding z-score from LXRb:RXRa (NR concentration 270 nM, RXRa partner concentration 90 nM) testing of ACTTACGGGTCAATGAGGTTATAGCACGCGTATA
Result: 4.08

Q: Give PBM binding z-score; test system LXRb:RXRa (NR concentration 270 nM, RXRa partner concentration 90 nM); sequence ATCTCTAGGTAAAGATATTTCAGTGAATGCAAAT
Result: 0.346

Q: Write down the reported PBM binding z-score (system: LXRb:RXRa (NR concentration 270 nM, RXRa partner concentration 90 nM)) of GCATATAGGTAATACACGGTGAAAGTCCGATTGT
Result: -0.0915

Q: Look up LXRb:RXRa (NR concentration 270 nM, RXRa partner concentration 90 nM) data: PBM binding z-score of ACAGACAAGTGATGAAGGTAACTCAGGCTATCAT , then report it.
Result: -0.446

Q: Recall the reported PBM binding z-score of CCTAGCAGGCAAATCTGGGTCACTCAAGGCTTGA when tested on LXRb:RXRa (NR concentration 270 nM, RXRa partner concentration 90 nM).
Result: 0.851

Q: Report measured PBM binding z-score on LXRb:RXRa (NR concentration 270 nM, RXRa partner concentration 90 nM); entry: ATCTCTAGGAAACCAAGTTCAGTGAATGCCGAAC
Result: 0.317

Q: GET PBM binding z-score where system = LXRb:RXRa (NR concentration 270 nM, RXRa partner concentration 90 nM) and item = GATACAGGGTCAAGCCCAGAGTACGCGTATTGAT
Result: 3.88

###

# key: entry, value: PBM binding z-score
- Tested on: LXRb homodimer (NR concentration 270 nM)
- Experiment notes: PBM binding z-score (relative to random genomic background probes); higher = stronger binding; sequences stand for … in GC…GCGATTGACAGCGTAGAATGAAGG
Enter a number only.

Illustrative cases are given below, each with its answer.
| Primary sequence | PBM binding z-score |
| --- | --- |
| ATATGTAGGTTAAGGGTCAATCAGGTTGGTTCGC | 1.35 |
| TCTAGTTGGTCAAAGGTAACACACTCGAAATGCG | 0.561 |
| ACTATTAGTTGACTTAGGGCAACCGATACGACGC | 0.41 |
| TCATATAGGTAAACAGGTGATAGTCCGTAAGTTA | -0.237 |

Q: Param request: PBM binding z-score | system LXRb homodimer (NR concentration 270 nM) | item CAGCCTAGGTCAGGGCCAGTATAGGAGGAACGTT
Result: -0.929

Q: Give the observed PBM binding z-score of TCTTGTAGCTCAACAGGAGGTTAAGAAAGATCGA for LXRb homodimer (NR concentration 270 nM).
Result: -0.709

Q: Enter recorded PBM binding z-score with LXRb homodimer (NR concentration 270 nM) for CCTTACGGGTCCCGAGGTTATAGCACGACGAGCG here.
Result: -0.6

Q: # lookup: LXRb homodimer (NR concentration 270 nM) PBM binding z-score, key = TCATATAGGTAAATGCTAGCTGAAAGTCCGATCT
Result: -0.112

Q: For LXRb homodimer (NR concentration 270 nM), give the measured PBM binding z-score of the entry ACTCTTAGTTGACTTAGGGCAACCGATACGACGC
Result: 0.941

Q: Report PBM binding z-score under test system LXRb homodimer (NR concentration 270 nM) for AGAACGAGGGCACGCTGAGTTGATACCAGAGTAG .
Result: -0.613

Q: GET PBM binding z-score | system: LXRb homodimer (NR concentration 270 nM) | item: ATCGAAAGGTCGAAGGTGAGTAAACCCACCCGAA
Result: 0.315

Q: Determine reported PBM binding z-score for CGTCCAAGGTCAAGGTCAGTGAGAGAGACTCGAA ; test system: LXRb homodimer (NR concentration 270 nM).
Result: 0.615
